Hey, just so you know, these numbers are from patent US20230330254A1.

biological target: human GLP1R (Homo sapiens); experiment: Luciferase reporter assay, HEK293/CRE-Luc/hGLP1R (Example 17); type: cell-based; parameters: engineered to express full-length human GLP1R, cynomolgus GLP1R; expressed in transfected cells; host or cells: HEK293/CRE-Luc; conditions: HEK293/CRE-Luc/hGLP1R; payloads and linker-payloads; experiments A-E, M2361 repeated in each; read-out: EC50
Sequence (P43220 24-463): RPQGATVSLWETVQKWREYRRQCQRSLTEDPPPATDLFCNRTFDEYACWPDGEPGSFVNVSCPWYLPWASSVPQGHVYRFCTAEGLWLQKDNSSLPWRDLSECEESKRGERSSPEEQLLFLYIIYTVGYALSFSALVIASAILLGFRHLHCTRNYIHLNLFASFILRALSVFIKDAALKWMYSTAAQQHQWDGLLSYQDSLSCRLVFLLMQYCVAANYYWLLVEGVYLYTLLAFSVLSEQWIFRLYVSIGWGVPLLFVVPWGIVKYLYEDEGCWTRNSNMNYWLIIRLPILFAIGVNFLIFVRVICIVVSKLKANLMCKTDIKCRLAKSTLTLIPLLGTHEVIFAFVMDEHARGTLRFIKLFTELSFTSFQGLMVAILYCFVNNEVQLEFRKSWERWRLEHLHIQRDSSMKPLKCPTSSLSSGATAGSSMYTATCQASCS
Where a SMILES comes first, the peptide text is derived from it. [ ]: non-standard residue; d: D form. The star is where a group is joined. Bip(2'-Et,4'-O(CH2)4NH2) = CCc1cc(OCCCCN)ccc1-c1ccc(C[C@H](N)C(=O)O)cc1; Nva(5-(3,5-Me2Ph)) = Cc1cc(C)cc(CCC[C@H](N)C(=O)O)c1; Ala(1H-tetrazol-5-yl) = N[C@@H](Cc1nnn[nH]1)C(=O)O; αMePhe(2-F) = C[C@](N)(Cc1ccccc1F)C(=O)O; Desaminohistidyl = O=C(CCc1c[nH]cn1)*; X4 = CC(C)(C(=O)O)C(=O)*; Aib = CC(C)(N)C(=O)O
Entries and their EC50
outcome measure: EC50 (nM)

molecule	result
CCc1cc(OCCCCN)ccc1-c1ccc(C[C@H](NC(=O)[C@H](CC(=O)O)NC(=O)[C@H](CO)NC(=O)[C@@H](NC(=O)[C@](C)(Cc2ccccc2F)NC(=O)[C@@H](NC(=O)CNC(=O)[C@H](Cc2nn[nH]n2)NC(=O)C(C)(C)C(=O)O)[C@@H](C)O)[C@@H](C)O)C(=O)N[C@@H](CCCc2cc(C)cc(C)c2)C(N)=O)cc1 [P3] (X4-[Ala(1H-tetrazol-5-yl)]GT[αMePhe(2-F)]TSD[Bip(2'-Et,4'-O(CH2)4NH2)][Nva(5-(3,5-Me2Ph))]-NH2)	1.95
CCc1cc(OCCCCNC(=O)[C@H](CO)NC(=O)CNC(=O)CNC(=O)CNC(=O)CNC(=O)[C@H](CO)NC(=O)CNC(=O)CNC(=O)CNC(=O)CNC(=O)CCC(=O)N2Cc3ccccc3C#Cc3ccccc32)ccc1-c1ccc(C[C@H](NC(=O)[C@H](CC(=O)O)NC(=O)[C@H](CO)NC(=O)[C@@H](NC(=O)[C@](C)(Cc2ccccc2F)NC(=O)[C@@H](NC(=O)CNC(=O)[C@H](Cc2nn[nH]n2)NC(=O)C(C)(C)C(=O)NCCc2cnc[nH]2)[C@@H](C)O)[C@@H](C)O)C(=O)N[C@@H](CCCc2cc(C)cc(C)c2)C(N)=O)cc1 [LP17, DIBAC- suc-G4S- G4S-P9]	0.0542
CCc1cc(OCCCCN)ccc1-c1ccc(C[C@H](NC(=O)[C@H](CC(=O)O)NC(=O)[C@H](CO)NC(=O)[C@@H](NC(=O)[C@](C)(Cc2ccccc2F)NC(=O)[C@@H](NC(=O)CNC(=O)[C@H](Cc2nn[nH]n2)NC(=O)[C@H](C)NC(=O)[C@@H](N)Cc2ccc(O)cc2)[C@@H](C)O)[C@@H](C)O)C(=O)N[C@@H](CCCc2cc(C)cc(C)c2)C(N)=O)cc1 [P18]	0.0613
CCc1cc(OCCCCN)ccc1-c1ccc(C[C@H](NC(=O)[C@H](CC(=O)O)NC(=O)[C@H](CO)NC(=O)[C@@H](NC(=O)[C@](C)(Cc2ccccc2F)NC(=O)[C@@H](NC(=O)CNC(=O)[C@H](Cc2nn[nH]n2)NC(=O)C(C)(C)NC(=O)[C@@H](N)Cc2ccc(O)cc2)[C@@H](C)O)[C@@H](C)O)C(=O)N[C@@H](CCCc2cc(C)cc(C)c2)C(N)=O)cc1 [P19] (H-Y[Aib][Ala(1H-tetrazol-5-yl)]GT[αMePhe(2-F)]TSD[Bip(2'-Et,4'-O(CH2)4NH2)][Nva(5-(3,5-Me2Ph))]-NH2)	0.0535
CCc1cc(OCCCCN)ccc1-c1ccc(C[C@H](NC(=O)[C@H](CC(=O)O)NC(=O)[C@H](CO)NC(=O)[C@@H](NC(=O)[C@](C)(Cc2ccccc2F)NC(=O)[C@@H](NC(=O)CNC(=O)[C@H](Cc2nn[nH]n2)NC(=O)CNC(=O)CCc2c[nH]cn2)[C@@H](C)O)[C@@H](C)O)C(=O)N[C@@H](CCCc2cc(C)cc(C)c2)C(N)=O)cc1 [P12] (Desaminohistidyl-G[Ala(1H-tetrazol-5-yl)]GT[αMePhe(2-F)]TSD[Bip(2'-Et,4'-O(CH2)4NH2)][Nva(5-(3,5-Me2Ph))]-NH2)	0.0114
